# ASSAY EXPLANATION: PK study in male Sprague-Dawley rats dosed once per day for five days, PO 10 mg/kg, 0.5% HPMC (Example 7)
# Type: in vivo
# RUN PARAMETERS: male, Sprague-Dawley, rat, in vivo, po, 10 mg/kg, Sprague-Dawley rats, following five daily PO doses of 10 mg/kg, 0.5% HPMC suspension, at 24 hr; read-out: last measurable concentration
MEASURE: concentration at 24 h (ng/mL)

{"columns": ["STRUCTURE NOTATION", "UNIT", "REPORTED RESULT"],
 "data": [
  ["Cc1cc(Nc2cc(N)ncn2)c(=O)n2c1C(=O)NC21CCC2(CC2)CC1", "ng/mL", 2670]
]}

====

# ASSAY EXPLANATION: PK study in male Sprague-Dawley rats dosed once per day for five days, PO 1 mg/kg, 0.5% HPMC (Example 6)
# Type: in vivo
# RUN PARAMETERS: male, Sprague-Dawley, rat, in vivo, po, 1 mg/kg, Sprague-Dawley rats, day 5 of daily PO 1 mg/kg, 0.5% HPMC suspension; mean (n = 3)
MEASURE: MRT inf (h)

{"columns": ["COMPOUND", "UNIT", "REPORTED RESULT"],
 "data": [
  ["Cc1cc(Nc2cc(N)ncn2)c(=O)n2c1C(=O)NC21CCC2(CC2)CC1 [4ET-03-053]", "h", 7.8]
]}

====

# ASSAY EXPLANATION: PK study in male Sprague-Dawley rats dosed once per day for five days, PO 1 mg/kg, 0.5% HPMC (Example 6)
# Assay type: in vivo
# RUN PARAMETERS: male, Sprague-Dawley, rat, in vivo, po, 1 mg/kg, Sprague-Dawley rats, day 5 of daily PO 1 mg/kg, 0.5% HPMC suspension; individual animals; read-out: t1/2 (converted)
# Protocol: Example 6: PK study of 4ET-03-053 in male Sprague-Dawley rats dosed once per day for five days (P0; 1 mg/kg; 0.500HPMC aqueous suspension) Table 18 provides plasma and brain concentrations of 4ET-03-0053 at 24 hr after the last dose of five daily P0 doses.
MEASURE: half-life (h)

{"columns": ["STRUCTURE NOTATION", "UNIT", "REPORTED RESULT"],
 "data": [
  ["Cc1cc(Nc2cc(N)ncn2)c(=O)n2c1C(=O)NC21CCC2(CC2)CC1", "h", 5.91]
]}

====

# ASSAY EXPLANATION: PK study in male Sprague-Dawley rats dosed once per day for five days, PO 25 mg/kg, 0.5% HPMC (Example 8)
# Type: in vivo
# RUN PARAMETERS: male, Sprague-Dawley, rat, in vivo, po, 25 mg/kg, single PO 25 mg/kg dose, 0.5% HPMC suspension, mean (n = 3), read-out: AUCinf

{"columns": ["COMPOUND", "UNIT", "AUC(0-inf)"],
 "data": [
  ["Cc1cc(Nc2cc(N)ncn2)c(=O)n2c1C(=O)NC21CCC2(CC2)CC1 [4ET-03-053]", "µg·h/mL", 341]
]}

====

# ASSAY EXPLANATION: PK study in male Sprague-Dawley rats, IV 0.5 mg/kg and PO 1 mg/kg in 10% DMA/PG (Example 5)
# Format: in vivo
# RUN PARAMETERS: male, Sprague-Dawley, rat, in vivo, iv, 0.5 mg/kg, systemic clearance (CLp)

{"columns": ["STRUCTURE NOTATION", "UNIT", "clearance"],
 "data": [
  ["Cc1cc(Nc2cc(N)ncn2)c(=O)n2c1C(=O)NC21CCC2(CC2)CC1", "mL/min/kg", 1.87]
]}
